Hi there, I'd appreciate the recorded GI50 for every entry that follows.
System: Malme-3M
Assay: NCI tumour cell line growth inhibition, 48 h
The source made the active and inactive calls. No stated cut-off is given here; in the data, active = GI50 up to about 1.1 µM and inactive = higher.

Record for "O=C1C(=O)N(c2nccs2)C(=O)C(=O)C1c1nc2ccccc2s1" under target or system Malme-3M: GI50 reported as > 100 µM (inactive)

Record for "C[C@H]1C2Cc3cc(O)ccc3[C@@]1(C)CCN2CCc1ccc(N)cc1" under target or system Malme-3M: GI50 reported as 18.8 µM (inactive)

Record for "CC(C)/C(Cl)=N/OC(NC(=O)Nc1ccc(Cl)c(Cl)c1)(C(F)(F)F)C(F)(F)F" under target or system Malme-3M: GI50 reported as 2.37 µM (inactive)

Record for "C/C1=C\CC[C@@]2(C)O[C@@H]2C[C@@H]2[C@H](C/C(C)=C/CC1)OC(=O)[C@]21CO1" under target or system Malme-3M: GI50 reported as > 100 µM (inactive)

Record for c1cncc(C2(c3cc4ccccc4[nH]3)COCO2)c1 (stereo not given) under target or system Malme-3M: GI50 reported as > 100 µM (inactive)

Record for CCOC(=O)C(NC(=O)c1ccccc1)(Nc1ccc(S(=O)(=O)Nc2ccc(OC)nn2)cc1)C(F)(F)F (stereo not given) under target or system Malme-3M: GI50 reported as > 100 µM (inactive)

Record for "O=C(CCCc1cccc2[nH]c3c(c12)CN(Cc1ccccc1)CC3)c1ccc(F)cc1" under target or system Malme-3M: GI50 reported as 40.9 µM (inactive)

Record for "CO[C@]12S[C@@H]3CCCC[C@@]31C(C)(C)C(=O)N2c1ccccc1" under target or system Malme-3M: GI50 reported as > 100 µM (inactive)

Record for "CS(=O)(=O)OCCN(CCOS(C)(=O)=O)c1ccc(/C=N/c2ccc3oc(=O)ccc3c2)cc1" under target or system Malme-3M: GI50 reported as 8.73 µM (inactive)

Record for "O=c1cc(-c2ccccc2)[nH]c2ccc(N3CCCCC3)cc12" under target or system Malme-3M: GI50 reported as > 100 µM (inactive)

====

System: SW-620
Assay: NCI tumour cell line growth inhibition, 48 h
The source made the active and inactive calls. Rule as the data show it: active = GI50 up to about 1.1 µM and inactive = higher.
Hi there, I'd appreciate the recorded GI50 for every entry that follows.

Please fill in: GI50 reported for "N#C/C(C(=O)Nc1ccc(Cl)cc1)=C(/N)N1CCCCC1" = > 100 µM (inactive)

Please fill in: GI50 reported for CC(=O)OCC1OC(n2c(-c3ccc(C)cc3)cc(-c3ccccc3)c(C#N)c2=S)C(OC(C)=O)C(OC(C)=O)C1OC(C)=O (stereo unspecified) = > 100 µM (inactive)

Please fill in: GI50 reported for "COc1ccc2c(c1)nc1n2C(N)=Nc2ccccc2S1" = 28.5 µM (inactive)

Please fill in: GI50 reported for CC12CC(C#N)(C#N)C(C#N)(CO1)C(=N)O2 (stereo unspecified) = 53.6 µM (inactive)

Please fill in: GI50 reported for "O=C(CCc1ccc(O)c(O)c1)NCCc1cc(OCc2ccccc2)cc(OCc2ccccc2)c1" = 7.1 µM (inactive)

Please fill in: GI50 reported for "COc1cc2c(cc1OC)C(c1ccccc1CCCCl)=NCC2" = 25.6 µM (inactive)

Please fill in: GI50 reported for CCCC1(N)CC(OC)OC(C)C1O (stereo unspecified) = > 100 µM (inactive)

Please fill in: GI50 reported for CN(C)CC1CCC/C(=C\c2ccc(OC(=O)/C=C/c3ccc(Cl)c(Cl)c3)cc2)C1=O (stereo unspecified) = 2.75 µM (inactive)

Please fill in: GI50 reported for CC1(Cc2ccccc2)NC(=S)NC1=O (stereo unspecified) = > 100 µM (inactive)

Please fill in: GI50 reported for COc1cc2c(c(OC(C)=O)c1OC(C)=O)-c1ccc(SC)c(=O)cc1C(NC(C)=O)CC2 (stereo unspecified) = 0.951 µM (active)

Please fill in: GI50 reported for "O=C(CCCc1cccc2[nH]c3c(c12)CN(Cc1ccccc1)CC3)c1ccc(F)cc1" = 83.2 µM (inactive)

Please fill in: GI50 reported for CC(C)C(Sc1nc(-c2ccccc2)c(-c2ccccc2)[nH]1)C(=O)NNC(=S)Nc1ccccc1 (stereo unspecified) = 15.3 µM (inactive)

Please fill in: GI50 reported for "Cc1ccc(Nc2nc(=O)c3c([nH]c4ccccc43)s2)cc1" = 10.8 µM (inactive)

Please fill in: GI50 reported for COc1ccc2[nH]c(C(=O)N3CC(CCl)c4ccc([N+](=O)[O-])cc43)cc2c1 (stereo unspecified) = > 100 µM (inactive)

Please fill in: GI50 reported for "CC(C)(C)CC(C)(C)N/C(N)=N/O" = > 100 µM (inactive)

Please fill in: GI50 reported for "Cc1ccc(C(=O)CCC2C(=O)CC(C)(C)CC2=O)cc1" = > 100 µM (inactive)

Please fill in: GI50 reported for "COC(=O)c1cc(-c2ccc3ccccc3c2)nc(O)c1C#N" = > 100 µM (inactive)

Please fill in: GI50 reported for COc1ccc(N[S+]([O-])c2ccc(Cl)cc2)cc1 (stereo unspecified) = 49.1 µM (inactive)

Please fill in: GI50 reported for CCc1ccc(Cc2ccc(CC)c(NC(=O)C(=O)C3NC(=S)NC3=O)c2CC)c(CC)c1NC(=O)C(=O)C1NC(=S)NC1=O (stereo unspecified) = > 100 µM (inactive)

Please fill in: GI50 reported for C=C(c1ccccc1)C1ON(C)CCc2cc(OC)c(OC)cc21 (stereo unspecified) = > 100 µM (inactive)

Please fill in: GI50 reported for "O=[N+]([O-])c1ccc(-n2nc3ccc4c(no[n+]4[O-])c3[n+]2[O-])c([N+](=O)[O-])c1" = 2.1 µM (inactive)

Please fill in: GI50 reported for "N#Cc1cnn2c1n[n+]([O-])c1ccc(Cl)cc12" = 9.14 µM (inactive)

Please fill in: GI50 reported for "O=c1[nH]nc(N/N=C\c2ccc(Cl)cc2)c2ccccc12" = 17.5 µM (inactive)

Please fill in: GI50 reported for O=C1N(c2ccccc2)C2(O)C(=O)c3ccccc3C2(O)N1c1ccccc1 (stereo unspecified) = > 100 µM (inactive)

Please fill in: GI50 reported for O=S(=O)(c1ccccc1)N1N=C2c3ccccc3CCC[C@H]2C1c1ccccc1 (stereo partly specified) = > 100 µM (inactive)

Please fill in: GI50 reported for CC(=O)N1N=C(c2ccc3ccccc3c2O)CC1c1cccs1 (stereo unspecified) = 16 µM (inactive)

Please fill in: GI50 reported for "CCOC(=O)/C=C(\C(=O)OCC)n1cc(C)c(=O)n(Cc2cnnn2COCCOC(C)=O)c1=O" = 2.18 µM (inactive)

Please fill in: GI50 reported for "Cn1c(COC(=O)NC2CCCCC2)c(COC(=O)NC2CCCCC2)c2ccc3cc(C=O)ccc3c21" = > 100 µM (inactive)

Please fill in: GI50 reported for "NC(=O)/C=c1/c2ccccc2n2nc3ccccc3c12" = 17.5 µM (inactive)

Please fill in: GI50 reported for CC1CCC2(O)C3(C)CC4(O)OC2(C1O)C1(O)C3(O)C(OC(=O)c2ccc[nH]2)C(O)(C(C)C)C41C (stereo unspecified) = > 100 µM (inactive)

Please fill in: GI50 reported for CC1=C(C#N)C(=O)CC(c2ccc(Cl)cc2)N(C)N1 (stereo unspecified) = > 100 µM (inactive)

Please fill in: GI50 reported for "COC1=C(OC)C(=O)C(Cc2c(C)nc3sccn23)=C(C)C1=O" = 14.8 µM (inactive)

Please fill in: GI50 reported for CC12O[C@]3([C@H](C(=O)N4CCOC43C)[C@H]1Cl)[C@H]1O[C@H]12 (stereo partly specified) = > 100 µM (inactive)

Please fill in: GI50 reported for "CC(C)(C)OC(=O)N1[C@@H]2Cc3ccc(N)cc3[C@@]1(C)c1ccccc12" = 29.7 µM (inactive)

Please fill in: GI50 reported for CCOC(=O)C(NC(=O)c1ccccc1)(Nc1ccc(S(=O)(=O)Nc2ccc(OC)nn2)cc1)C(F)(F)F (stereo unspecified) = > 100 µM (inactive)

Please fill in: GI50 reported for "O=S(=O)(O)c1cc(S(=O)(=O)O)c2cc(/N=N/c3c(O)ccc4ccccc34)ccc2c1" = > 100 µM (inactive)

Please fill in: GI50 reported for "COc1ccc(C[C@H](N)C(=O)N2C[C@H](CO)C[C@H](n3cnc4c(N(C)C)ncnc43)C2)cc1" = > 100 µM (inactive)

Please fill in: GI50 reported for "O=C(O)CCO/N=C1/C(=C2/C(=O)Nc3ccccc32)Nc2ccccc21" = 29.7 µM (inactive)

Please fill in: GI50 reported for "O=C1Nc2ccccc2/C1=N/NC(=S)Nc1ccc([N+](=O)[O-])cc1" = 4.01 µM (inactive)

Please fill in: GI50 reported for "Clc1ccc(C[P+]2(c3ccccc3)CCCCC2)cc1.[O-][Cl+3]([O-])([O-])[O-]" = 80 µM (inactive)

Please fill in: GI50 reported for Cc1cn(C(CO)OC(CO)CN(O)C2C3CC4CC(C3)CC2C4)c(=O)[nH]c1=O (stereo unspecified) = > 100 µM (inactive)
